tested on: CCRF-CEM; experiment: NCI tumour cell line growth inhibition, 48 h
Activity calls are given as the source filed them. Cut-off read from the data, not from the text of the source: active = GI50 up to about 1.1 µM and inactive = higher. Where a SMILES comes first, the peptide text is derived from it. Bridges are numbered along the chain shown (N, C = ends). [ ]: non-standard residue; d: D form. The star is where a group is joined. ξ: configuration not given here. ξNMePhe(4-NMe2) = CNC(Cc1ccc(N(C)C)cc1)C(=O)O; Picolinoyl(3-OH) = O=C(c1ncccc1O)*; ξPip(4-oxo) = O=C1CCNC(C(=O)O)C1; Phg = N[CH](C(=O)O)c1ccccc1; Abu = CC[CH](N)C(=O)O
Quantity: GI50

Item "O=C1/C(=C/c2ccc(Cl)cc2)N=C(c2ccccc2)N1c1nc2c(Cl)cc(Cl)cc2s1" ; assay system CCRF-CEM; GI50 reported as 3.45 µM (inactive)

The reported CCRF-CEM GI50 of C=C(C)[C@@H]1CC[C@]2(C(=O)OC3OC(COC4OC(CO)C(OC5OC(C)C(O)C(O)C5O)C(O)C4O)C(O)C(O)C3O)CC[C@]3(C)[C@H](CC[C@@H]4[C@@]5(C)CC[C@H](O)[C@@](C)(CO)[C@@H]5CC[C@]43C)[C@@H]12 (stereo partly specified) is 0.043 µM (active)

Measured GI50 for this entry "Cc1ccc2c(/C=C/c3ccc(N(C)C)cc3)ccc(C(C)C)cc1-2" on CCRF-CEM: 37.2 µM (inactive)

# CC1=C/C(O)CC(=O)Cc2nc(co2)C(=O)N2CCC=C2C(=O)OC(C(C)C)C(C)/C=C/C(=O)NC\C=C\1.CCC1NC(=O)C(NC(=O)c2ncccc2O)C(C)OC(=O)C(c2ccccc2)NC(=O)C2CC(=O)CCN2C(=O)C(Cc2ccc(N(C)C)cc2)N(C)C(=O)C2CCCN2C1=O (stereo unspecified) ({Picolinoyl(3-OH)}-T[Abu]P[ξNMePhe(4-NMe2)][ξPip(4-oxo)][Phg]; ester 1-C; configuration not given here) with CCRF-CEM: GI50 is 1.9 µM (inactive)

CCRF-CEM data for "COC(=O)c1ccccc1Nc1ccccc1C(=O)OC" ; its GI50: > 100 µM (inactive)

Measured GI50 for this entry "O=C1OC(=O)C(=C\c2ccc3c(c2)OCO3)/C1=C/c1ccc2c(c1)OCO2" on CCRF-CEM: 25.9 µM (inactive)

---

system: A498; test: NCI tumour cell line growth inhibition, 48 h
Active and inactive are the calls of the source. Cut-off read from the data, not from the text of the source: active = GI50 up to about 1.1 µM and inactive = higher.
In this exercise, the only acceptable responses are True (active), False (inactive)

INPUT: Hi, do you know how "CCOC(=O)c1nc2ccc(C(F)(F)F)cc2nc1Oc1ccc(OC)cc1" came out in this test?
OUTPUT: False

INPUT: What call does the record list for Fc1ccccc1C1CC(c2ccc3ccccc3c2)=Nc2ccccc2S1 (stereo not drawn) ?
OUTPUT: False

INPUT: Record request — test call for "N#CCCN(CCC#N)c1ccc(/C=C2\N=C(COc3ccc(Cl)cc3Cl)OC2=O)cc1"
OUTPUT: False

INPUT: Record request — test call for "COC(=O)/C=C1/OC(c2ccccc2)=C(C)C1=O"
OUTPUT: False

INPUT: Please let me know the test result on file for "CCOC(=O)c1nc2ccc(C(F)(F)F)cc2nc1NCc1ccc(OC)c(OC)c1" .
OUTPUT: False

INPUT: Hello, I am checking results. What call was entered for "Cn1c(=O)c(/N=N/c2c(=O)n(C)c(=O)n3c2[nH]c2ccccc23)c2[nH]c3ccccc3n2c1=O" ?
OUTPUT: False

INPUT: Record request — test call for "O=C(Nn1cc(F)c(=O)[nH]c1=O)C12CC3CC(CC(C3)C1)C2"
OUTPUT: False

INPUT: Any idea what this test logged for "Cc1ccc(S(=O)(=O)N/C(=N\O)Nc2ccc(Cl)c(Cl)c2)cc1" ?
OUTPUT: False

INPUT: Dear all, I need the recorded test outcome for "CCC(=O)C(CCN1CCC2(CCCc3ccccc32)CC1)(c1ccccc1)c1ccccc1" , thank you.
OUTPUT: False

INPUT: Entry "COc1ccc(C(=O)/C=C/c2ccc(O)c(O)c2F)c(OC)c1" : call = ?
OUTPUT: False

INPUT: Outcome? "O=C(C[n+]1ccccc1)N/N=C(/CCC(=O)N(Cc1ccccc1)Cc1ccccc1)CC(=O)c1ccccc1"
OUTPUT: False

INPUT: // outcome(item) with item = CC[C@@]1(O)C[C@H](OC2CC(N(C)C)C(O)C(C)O2)c2c(cc3c(c2O)C(=O)c2c(O)ccc(O)c2C3=O)[C@H]1C(=O)OC (stereo partly drawn)
OUTPUT: True

INPUT: Hi, sorry to bother you, what did the test record for "C[C@]12C=CC(=O)C=C1[C@@H](F)C[C@H]1[C@@H]3CC[C@](O)(C(=O)CO)[C@@]3(C)C[C@H](O)[C@@]12F" ?
OUTPUT: False

INPUT: Recorded test outcome, item "ClC(Cl)(Cl)C1=N[C@H]2[C@H](Br)[C@@H]3O[C@@H](c4ccccc4)[C@H](c4ccccc4)O[C@@H]3[C@H]2O1"
OUTPUT: False

INPUT: For "N#CSc1ccc(S(N)(=O)=O)cc1" , which call appears in the assay record?
OUTPUT: False

INPUT: I would be grateful if you could indicate the recorded call for O=C(Nc1cccc(C(F)(F)F)c1)C(=O)C1NC(=S)NC1=O (stereo not drawn) .
OUTPUT: False

INPUT: Returns: the outcome recorded for "O=C(NNC(=O)c1ccco1)c1ccco1" in this assay.
OUTPUT: False

INPUT: Hi, do you know how NC1NCCC(=O)N1CCc1c[nH]c2ccccc12 (stereo not drawn) came out in this test?
OUTPUT: False

INPUT: Please share the test call associated with "O=C(c1ccccc1)c1sc2c(=O)c(C(=O)c3ccccc3)c(C(=O)c3ccccc3)sc2c(=O)c1C(=O)c1ccccc1" .
OUTPUT: False

INPUT: Status in this test for O=C(NC1=NC2C=CC([N+](=O)[O-])=CC2S1)C(=O)Nn1c(S)nc2ccccc2c1=O (stereo not drawn) ?
OUTPUT: False

INPUT: How did this test come out for CN1CC2=C(N=C(S)NC2c2ccccc2)/C(=C/c2ccccc2)C1 (stereo not drawn) ?
OUTPUT: False

INPUT: Please let me know the test result on file for "CCOC(=O)c1nc2ccccc2nc1Nc1ccc(C(=O)OC)s1" .
OUTPUT: False

INPUT: Dear colleague, could you share the recorded outcome for "O=Cc1c(Cn2ccnc2)c2cc([N+](=O)[O-])ccc2n1Cc1ccccc1" when you have a moment?
OUTPUT: False

INPUT: For O=S(=O)(c1ccccc1)C1CC(c2nc3ccccc3[nH]2)=NO1 (stereo not drawn) , which call appears in the assay record?
OUTPUT: False

INPUT: Give the logged outcome of this assay for the following compound: "Clc1ccc(CSCc2ccc(Cl)cc2Cl)c(Cl)c1"
OUTPUT: False

INPUT: Call for entry COc1cc(C2S/C(=C/c3ccccc3)C(=O)N2c2ccc([N+](=O)[O-])cc2)cc(OC)c1OC (stereo not drawn) :
OUTPUT: False

INPUT: Per the records of this test, what outcome belongs to "CCOC(=O)/C(C#N)=C(/NS(=O)(=O)c1cc(C)c(Cl)cc1[S-])[n+]1ccc(N(C)C)cc1" ?
OUTPUT: False

INPUT: Record lookup: outcome of this test for "COC1=C[C@]2(CCC(=O)O2)[C@@H]2Cc3ccccc3[C@H](O)[C@@H]2C1=O" ?
OUTPUT: False

INPUT: Short answer needed: outcome of this test for "COc1cc(CNc2c3ccccc3nc3ccccc23)cc(OC)c1OC" ?
OUTPUT: False

INPUT: Short answer needed: outcome of this test for "Cc1ccc(S(=O)(=O)N/N=C2/CCCOC2)cc1" ?
OUTPUT: False

INPUT: Called result for CC(O)C(C(=O)O)N(CC1(O)OCC(O)C(O)C1O)N=O (stereo not drawn)
OUTPUT: False

INPUT: Please share the test call associated with "O=S(=O)(O)c1cc(O)c2c(/N=C\c3ccccc3O)cc(S(=O)(=O)O)cc2c1" .
OUTPUT: False

INPUT: Please let me know the test result on file for "OCCSCc1cc2c(O)c(c1)Cc1cc(CSCCO)cc(c1O)Cc1cc(CSCCO)cc(c1O)Cc1cc(CSCCO)cc(c1O)C2" .
OUTPUT: False

---

tested on: HOP-18; assay: NCI tumour cell line growth inhibition, 48 h
The source made the active and inactive calls. Cut-off read from the data, not from the text of the source: active = GI50 up to about 1.1 µM and inactive = higher.
Quantity: GI50

So for "[O-][Cl+3]([O-])([O-])[O-].c1ccc(C[P+]2(c3ccccc3)CCCCC2)cc1" , the logged GI50 turned out to be > 100 µM (inactive)

Lab book: GI50 of Brc1ccccc1C1SCc2nc3ccccc3n21 (stereo not drawn) noted as < 0.01 µM (active)

GI50 reading for "O/N=C1/CCC/C1=C\c1ccccc1" : > 100 µM (inactive)

---

system: SNB-75; assay: NCI tumour cell line growth inhibition, 48 h
Activity calls are given as the source filed them. Cut-off read from the data, not from the text of the source: active = GI50 up to about 1.1 µM and inactive = higher.
Pick one: yes (1) (active), no (0) (inactive)

INPUT: Outcome? C=C(C)[C@@H]1CC[C@]2(C(=O)OC3OC(COC4OC(CO)C(OC5OC(C)C(O)C(O)C5O)C(O)C4O)C(O)C(O)C3O)CC[C@]3(C)[C@H](CC[C@@H]4[C@@]5(C)CC[C@H](O)[C@@](C)(CO)[C@@H]5CC[C@]43C)[C@@H]12 (some centres not stated)
OUTPUT: no (0)

INPUT: Fill in: this test's call for "Cc1ccc(S(=O)(=O)NC(=O)NCCc2ccccc2)cc1" is ___
OUTPUT: no (0)

INPUT: # fetch the recorded call for "C[C@]12CC[C@H]3[C@@H](CC=C4C[C@@H](N5CCCC5)CC[C@@]43C)[C@@H]1C[C@H](N1CCOCC1)[C@@H]2O" here
OUTPUT: no (0)

INPUT: // return assay outcome for CCOC(=O)C1=CNC(C(=O)OCC)C1c1cccn1-c1ccc(Cl)cc1[N+](=O)[O-] (configuration not stated)
OUTPUT: no (0)

INPUT: What classification did COc1cc(C2S/C(=C/c3ccccc3)C(=O)N2c2cccc(NC(C)=O)c2)cc(OC)c1OC (configuration not stated) end up with in this test?
OUTPUT: no (0)

INPUT: For this molecule, state the assay outcome: "CC(C)Oc1c(N(Cc2ccccc2)c2ccccc2C2SCCCS2)c(=O)c1=O"
OUTPUT: no (0)

INPUT: Lab log entry: "CC1(C)CC(=O)c2c(nc(SSc3nc4c(c(-c5ccc(Br)cc5)c3C#N)C(=O)CC(C)(C)C4)c(C#N)c2-c2ccc(Br)cc2)C1" — outcome as called in the assay?
OUTPUT: no (0)

INPUT: Test call for this molecule, please: "O/N=C\c1c2c(cc3c1CCC3)CCC2"
OUTPUT: no (0)

INPUT: Given CC[C@@]1(O)C[C@H](OC2CC(N(C)C)C(O)C(C)O2)c2c(cc3c(c2O)C(=O)c2c(O)ccc(O)c2C3=O)[C@H]1C(=O)OC (some centres not stated) , state the outcome it received in this test.
OUTPUT: yes (1)

INPUT: Tell me the assay call for "CCOP(=O)(CC(=O)C1CC1)OCC" please.
OUTPUT: no (0)

INPUT: Recorded test outcome, item "CCN1c2ccccc2NC(=S)c2c(-c3ccccc3)n[nH]c21"
OUTPUT: no (0)

INPUT: Hi team, can someone confirm the assay call for CCCCCC[C@H]1CC(=O)C2CCCC[C@@]23CC[C@H](CCl)N13.CCCCCC[C@H]1CC(=O)C2CCCC[C@@]23C[C@H](Cl)CN13 (some centres not stated) ?
OUTPUT: no (0)

INPUT: # lookup: test call for "CCCOc1ccc(/C=C/C2=[N+](CCO)CCO2)cc1"
OUTPUT: no (0)

INPUT: What classification did "O=c1oc2ccc3ccccc3c2cc1-c1nc2ccc([N+](=O)[O-])cc2o1" end up with in this test?
OUTPUT: no (0)

INPUT: Given CC1OC(OC2C(O[C@H]3CC[C@@]4(C)C(=CC[C@H]5[C@@H]6C[C@@H]7O[C@]8(CC[C@@H](C)CO8)[C@@H](C)[C@@H]7[C@@]6(C)CC[C@@H]54)C3)OC(CO)C(OC3OC(CO)C(O)C3O)C2O)C(O)C(O)C1O (some centres not stated) , state the outcome it received in this test.
OUTPUT: yes (1)

INPUT: Per the records of this test, what outcome belongs to CC1(C)OC2CC3COC(=O)C3CC2O1 (configuration not stated) ?
OUTPUT: no (0)

INPUT: Which result was noted for this molecule in the test: "O=S(=O)(O)c1cc(O)c2c(/N=C\c3ccccc3O)cc(S(=O)(=O)O)cc2c1"
OUTPUT: no (0)

INPUT: Hey, what did the test say about "C#CCNC(=O)N(CC#C)N=O" ?
OUTPUT: no (0)

INPUT: // return assay outcome for O=C(CCN1CCCCC1CCO)Nc1ccc2c(c1)C(=O)c1ccc(NC(=O)CCN3CCCCC3CCO)cc1C2=O (configuration not stated)
OUTPUT: no (0)

INPUT: Any idea what this test logged for "CCN(CC)c1ccc2cc(-c3nc(O)c4ccccc4n3)c(=N)oc2c1" ?
OUTPUT: no (0)

INPUT: // param item: "O=C(Nn1cc(F)c(=O)[nH]c1=O)C12CC3CC(CC(C3)C1)C2" ; yields the recorded call
OUTPUT: no (0)

INPUT: Any idea what this test logged for Cc1cccc(NC(=O)CC2C(=O)Nc3ccccc3S2(=O)=O)c1C (configuration not stated) ?
OUTPUT: no (0)
